target: T1, huNav1.7α + β1-β2-β3 (human Nav1.7α co-expressed with human Navβ1, Navβ2 and Navβ3 on cells) (human); assay: binding FACS, CHO FlpIn cells
T1 construct: also called huNav1.7-beta1-beta2-beta3; CHO FlpIn huNav1.7α + β1-β2-β3
Give EC50 for every item shown.
Lab book: enter the figure in nM, no units written.

## Task Give me measured EC50, please, for this binder: F010301865 (VHH, also called F0103387G04(L11V, A12V, K33R, R39Q, S50Y, S56D, T60A, W78V, S79Y, T83R, V89L, N93R)) VHH: EVQLVESGGGVVQPGGSLRLSCAASGPVFNINRMAWYRQAPGKQRELVAYVTPTGDISYADSVKGRFTISRDGSKRVYLQMNSLRPEDTALYYCRALLQPDSYSNTRTYWGQGTLVTVSA
## Result 20

## Task Give a short answer stating reported EC50 for F010302325 (VHH, also called F0103387G04(L11V, A12V, K33R, R39Q, S50Y, S56D, T60A, G73R, W78V, S79Y, T83R, V89L, N93R)) VHH: EVQLVESGGGVVQPGGSLRLSCAASGPVFNINRMAWYRQAPGKQRELVAYVTPTGDISYADSVKGRFTISRDRSKRVYLQMNSLRPEDTALYYCRALLQPDSYSNTRTYWGQGTLVTVSS .
## Result 13

## Task Tell me its EC50 given F010301653 (VHH, also called F0103275B05(L11V, S33R, S50Y, S56D, T83R, V89L, N93R)) VHH: EVQLVESGGGVVQPGGSLRLSCAASGSIFNINRMAWYRRAPGKQRELVAYSTNGGDTNYADSVKGRFTISRDNAKRVYLQMNSLRPEDTALYYCRALLQPSIYDISRTYWGQGTLVTVSS as the entry.
## Result 36

## Task Answer with the recorded EC50 for the binder listed here: F010302385 (VHH, also called F0103387G04(L11V, A12V, K33R, R39Q, S50Y, S56D, T60A, D72Q, W78V, S79Y, T83R, V89L, N93R, D99S, N100cG)) VHH: EVQLVESGGGVVQPGGSLRLSCAASGPVFNINRMAWYRQAPGKQRELVAYVTPTGDISYADSVKGRFTISRQGSKRVYLQMNSLRPEDTALYYCRALLQPSSYSGTRTYWGQGTLVTVSS
## Result 7.9
